Target: rHPLOE (recombinant hemolymph plasma lectin)
Construct: E. coli codon-optimised synthetic gene hplOE in pET-23a(+), BL21(DE3) with chaperones (pG-KJE8); His-tag kept; HisTrap purified
Test: competitive ELISA against coated PA14 biofilm extract
Conditions: 0.1 uM rHPLOE; 37 °C, 1 h; competitor of binding to cell-free P. aeruginosa PA14 biofilm; one-site Ki fit
ATTRIBUTE MEASURED: pKi
Answers are plain numbers, as −log10 of the molar value.

Query: Entry C[C@@H]1OC(O)[C@H](O)[C@H](O)[C@H]1O (stereo partly shown) : reported pKi = ?
Response: 1.01

Cited source for all entries: paper PMC6628293
